B1: library; numbered along this chain (parent)
chain: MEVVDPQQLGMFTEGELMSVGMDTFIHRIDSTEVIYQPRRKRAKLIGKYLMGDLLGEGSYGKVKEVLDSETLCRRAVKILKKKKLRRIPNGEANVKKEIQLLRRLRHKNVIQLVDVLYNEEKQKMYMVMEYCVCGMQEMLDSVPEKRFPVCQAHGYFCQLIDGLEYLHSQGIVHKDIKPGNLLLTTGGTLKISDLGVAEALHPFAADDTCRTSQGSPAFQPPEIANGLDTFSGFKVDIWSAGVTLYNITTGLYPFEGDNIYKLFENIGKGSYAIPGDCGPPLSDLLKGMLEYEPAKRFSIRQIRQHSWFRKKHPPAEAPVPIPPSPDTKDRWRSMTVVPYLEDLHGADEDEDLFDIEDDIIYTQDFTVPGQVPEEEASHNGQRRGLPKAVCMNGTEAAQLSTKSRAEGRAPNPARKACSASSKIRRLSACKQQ

# Variants of: B1
# test: STK11 functional score (HeLa growth suppression), rescaled enrichment; synonymous median = 1, nonsense median = 0 (normalised score)
# experimental.parameters: with HeLa; variant type: missense
endpoint: STK11 functional score

C73Y = 0.412
A198H = 1.54
N266T = 0.876
I303D = -0.579
M139E = 0.269
G180V = 0.816
K416R = 1.54
L54R = 0.812
Q137I = 0.934
R331C = 1.38
P339S = 1.42
G233F = 1.46
P281G = 0.787
L252I = 1.54
T367C = 1.4
V77D = 0.0184
N119V = 0.707
S404C = 1.14
R211I = 0.844
Q37V = 1.38
L386P = 0.743
N119S = 0.694
S401I = 1.49
E121W = 0.251
Y272A = 1.33
R383E = 1.57
D358W = 1.46
M22T = 1.63
S271V = 0.986
K41G = 1.25
I88R = 1.65
V95E = 0.927
T24R = 0.782
K312M = 1.45
R409G = 1.25
A406H = 1.6
A410H = 1.23
I424D = 1.54
I274C = 0.973
L341Q = 1.59
A205E = 1.64
E14S = 1.34
L286Q = 0.0782
P221D = 0.00575
L105M = 1.18
E165G = 0.569
D53V = 0.606
L54K = 1.61
A206N = 1.66
R104Q = 1.21
E2Q = 1.21
Q100P = 0.999
S378D = 1.5
P324E = 1.53
E70Y = 1.14
P89T = 0.786
K296N = 1.12
G180I = 1.41
Y272I = 1.08
T244V = 1.15
R331V = 1.13
K287P = 0.105
D352K = 1.55
L54A = 0.975
L285A = -0.0789
K78A = -0.0486
E138I = 1.48
Q123T = 1.27
K44T = 0.843

Every entry's value here was drawn from the supplement of paper PMC12338614.
